Recorded values, source PubChem BioAssay AID1996.

- measurement_setup: buffer; pH 7.4; 200.0 µM
Note to self: values exactly at 30 µg/mL are criterion met. So solubility kinetic at or above 30 µg/mL is criterion met, below is criterion not met.

// known answers, use as guide
compound: CN(C)CC(C)(C)CNS(=O)(=O)c1ccc(Cl)cc1.Cl
group: criterion met

compound: Cc1c(C=O)c2ccccn2c1C(=O)c1ccc(F)cc1
group: criterion not met

compound: Cc1cccc(NC(=O)c2ccc(N3C(=O)C4CCCCC4C3=O)cc2)c1C (stereo not given)
group: criterion not met

compound: O=C(/C=C/c1ccc(F)cc1)NC(=S)Nc1ccccc1O
group: criterion not met

Decide: is the reported value of solubility kinetic for Cc1ccc(C(=O)NCC(=O)OCC(=O)NCC(F)(F)F)cc1 equal to or greater than 30 µg/mL?
criterion met

Decide: is the reported value of solubility kinetic for NC(=O)COc1cc2oc(=O)c3c(c2cc1Cl)CCCC3 equal to or greater than 30 µg/mL?
criterion not met

Decide: is the reported value of solubility kinetic for CC1(C)CC(=O)C=C(Nc2ccc(Cl)c(Br)c2)C1 equal to or greater than 30 µg/mL?
criterion not met

Decide: is the reported value of solubility kinetic for CC(=O)Nc1ccc(C(=O)Nc2ccncc2)cc1 equal to or greater than 30 µg/mL?
criterion met

Decide: is the reported value of solubility kinetic for O=C(NCc1cccnc1)Nc1cccc(NC(=O)NCc2cccnc2)c1F equal to or greater than 30 µg/mL?
criterion not met

Decide: is the reported value of solubility kinetic for CCOc1ccc(NC(=O)C(CC(=O)O)Cc2ccc(Br)cc2)cc1 (stereo not given) equal to or greater than 30 µg/mL?
criterion met

Decide: is the reported value of solubility kinetic for CC(=O)Nc1ccc(NC(=O)c2c(C)noc2C)cc1 equal to or greater than 30 µg/mL?
criterion met

Decide: is the reported value of solubility kinetic for CCCS(=O)(=O)Nc1cccc(-c2nc3cccnc3s2)c1 equal to or greater than 30 µg/mL?
criterion not met

Decide: is the reported value of solubility kinetic for O=C1CCN(S(=O)(=O)c2ccc(Cl)cc2)CC1 equal to or greater than 30 µg/mL?
criterion met

Decide: is the reported value of solubility kinetic for O=C(O)C(c1ccccc1)N1C(=O)c2ccccc2C1=O (stereo not given) equal to or greater than 30 µg/mL?
criterion met

Decide: is the reported value of solubility kinetic for Clc1nnc(Cl)c2c1ncn2Cc1ccccc1 equal to or greater than 30 µg/mL?
criterion met

Decide: is the reported value of solubility kinetic for CC(C)N(Cc1ccccc1)C(=S)Nc1ccccc1F equal to or greater than 30 µg/mL?
criterion met

Decide: is the reported value of solubility kinetic for CN(C(=O)CSc1ncn[nH]1)C1(C#N)CCCCC1 equal to or greater than 30 µg/mL?
criterion met

Decide: is the reported value of solubility kinetic for CCOc1ccc(C(=O)CCC(=O)N2CCN(c3ccc(O)cc3)CC2)cc1 equal to or greater than 30 µg/mL?
criterion not met

Decide: is the reported value of solubility kinetic for CN(C)c1ccc(C2Nc3cccc4cccc(c34)N2)cc1 equal to or greater than 30 µg/mL?
criterion not met

Decide: is the reported value of solubility kinetic for CC1Cc2ccccc2N1C1=CC(=O)CCC1 (stereo not given) equal to or greater than 30 µg/mL?
criterion met

Decide: is the reported value of solubility kinetic for Cc1ccc(C)c(N2CCN(c3ncccc3[N+](=O)[O-])CC2)c1 equal to or greater than 30 µg/mL?
criterion not met
